# assayed system: T1, CHO-hu α11 (Homo sapiens, UniProt Q9UKX5)
# T1 construct: expressed in transfected cells; host or cells: CHO-K1
# T1 sequence (Q9UKX5 23-1188): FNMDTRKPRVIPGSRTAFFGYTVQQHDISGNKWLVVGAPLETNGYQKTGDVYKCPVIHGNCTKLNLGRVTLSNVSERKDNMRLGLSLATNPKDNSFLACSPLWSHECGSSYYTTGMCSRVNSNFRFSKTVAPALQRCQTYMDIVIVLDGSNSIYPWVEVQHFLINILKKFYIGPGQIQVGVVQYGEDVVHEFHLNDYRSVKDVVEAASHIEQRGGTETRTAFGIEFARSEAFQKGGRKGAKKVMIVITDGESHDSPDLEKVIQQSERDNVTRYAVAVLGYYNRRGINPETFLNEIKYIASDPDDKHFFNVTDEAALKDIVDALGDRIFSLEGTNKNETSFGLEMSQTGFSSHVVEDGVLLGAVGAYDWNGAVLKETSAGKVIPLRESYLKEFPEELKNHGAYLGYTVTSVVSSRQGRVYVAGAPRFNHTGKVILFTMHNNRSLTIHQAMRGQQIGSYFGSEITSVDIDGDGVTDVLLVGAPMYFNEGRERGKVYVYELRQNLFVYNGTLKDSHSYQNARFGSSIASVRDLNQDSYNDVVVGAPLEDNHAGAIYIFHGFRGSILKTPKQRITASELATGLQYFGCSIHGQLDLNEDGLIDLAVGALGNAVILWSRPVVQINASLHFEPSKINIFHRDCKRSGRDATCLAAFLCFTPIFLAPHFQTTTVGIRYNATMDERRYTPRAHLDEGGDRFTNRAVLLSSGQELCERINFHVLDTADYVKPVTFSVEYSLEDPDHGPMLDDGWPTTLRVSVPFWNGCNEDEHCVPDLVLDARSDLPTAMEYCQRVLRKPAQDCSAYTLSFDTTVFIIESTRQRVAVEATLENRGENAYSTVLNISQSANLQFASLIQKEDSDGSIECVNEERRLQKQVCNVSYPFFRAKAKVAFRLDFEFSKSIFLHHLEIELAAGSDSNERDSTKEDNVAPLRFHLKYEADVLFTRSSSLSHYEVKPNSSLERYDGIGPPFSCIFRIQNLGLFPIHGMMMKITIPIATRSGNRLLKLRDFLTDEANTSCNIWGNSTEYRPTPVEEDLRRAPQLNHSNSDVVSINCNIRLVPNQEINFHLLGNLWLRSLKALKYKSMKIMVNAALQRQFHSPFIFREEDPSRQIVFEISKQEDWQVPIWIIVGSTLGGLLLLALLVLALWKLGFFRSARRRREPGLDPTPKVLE
# T1 sequence (P05556 21-798 partner): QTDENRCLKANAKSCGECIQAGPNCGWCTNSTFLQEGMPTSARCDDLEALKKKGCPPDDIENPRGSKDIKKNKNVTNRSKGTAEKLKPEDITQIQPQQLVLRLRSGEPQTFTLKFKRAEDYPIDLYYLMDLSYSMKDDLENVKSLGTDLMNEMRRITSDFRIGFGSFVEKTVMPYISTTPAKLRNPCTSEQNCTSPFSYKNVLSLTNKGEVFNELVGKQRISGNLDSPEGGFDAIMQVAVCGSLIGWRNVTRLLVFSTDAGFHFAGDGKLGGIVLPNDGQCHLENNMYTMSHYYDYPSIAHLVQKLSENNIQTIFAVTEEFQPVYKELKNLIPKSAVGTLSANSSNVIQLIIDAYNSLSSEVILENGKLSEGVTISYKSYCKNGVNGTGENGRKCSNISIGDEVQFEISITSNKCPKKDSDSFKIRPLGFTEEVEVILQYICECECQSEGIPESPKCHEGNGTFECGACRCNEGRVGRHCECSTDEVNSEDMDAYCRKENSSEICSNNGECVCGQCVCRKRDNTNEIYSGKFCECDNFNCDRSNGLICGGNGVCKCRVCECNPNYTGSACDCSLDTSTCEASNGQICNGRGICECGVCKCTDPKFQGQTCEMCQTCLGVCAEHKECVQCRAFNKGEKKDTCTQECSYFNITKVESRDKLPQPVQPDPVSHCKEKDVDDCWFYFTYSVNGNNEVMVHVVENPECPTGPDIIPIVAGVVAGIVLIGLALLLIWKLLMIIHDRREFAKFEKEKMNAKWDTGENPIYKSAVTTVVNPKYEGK
# assay comment: Cell adhesion inhibition on type I collagen (xCelligence)
# Type: cell-based
# applied conditions: Table 12, 16E10 variants, FIG. 5B; read-out: CHO-α11 Adhesion Inhibition IC50
observable: IC50 (nM)
Give just the number in nM; leave the unit off.

molecule	uom	value observed
A11BB112: 16E10 variant; VH SEQ ID NO: 49, VL SEQ ID NO: 61 (antibody, V domains shown) VH: EVQLLESGGGLVQPGGSLRLSCAASGFSFSSSYYMCWVRQAPGKGLEWVSCIGTTRGSTYYADSVKGRFTISRDNSKNTLYLQMNSLRAEDTAVYYCARDATGYRINTIGLYFNLWGQGTLVTVSS VL: DIVMTQSPDSLAVSLGERATINCQASQTIYSYLSWYQQKPGQPPKLLIYEASKLASGVPDRFSGSGSGTDYTLTISSLQAEDVAVYYCQSYHGTASTEYNTFGGGTKVEIK	nM	0.5

# return recorded IC50 for input A11BB119: 16E10 variant; VH SEQ ID NO: 45, VL SEQ ID NO: 61 (antibody, V domains shown) VH: EVQLLESGGGLVQPGGSLRLSCAASGFSFSSSYYMAWVRQAPGKGLEWVSAIGTTRGSTYYADSVKGRFTISRDNSKNTLYLQMNSLRAEDTAVYYCARDATGYRINTIGLYFNLWGQGTLVTVSS VL: DIVMTQSPDSLAVSLGERATINCQASQTIYSYLSWYQQKPGQPPKLLIYEASKLASGVPDRFSGSGSGTDYTLTISSLQAEDVAVYYCQSYHGTASTEYNTFGGGTKVEIK
0.7

FYI, the data here is from patent US20260184794A1.
